Sourced from patent US20150087577A1

STUDY_SYSTEM: human CXCR4 (human, UniProt P61073 1-352)
Sequence (P61073 whole entry): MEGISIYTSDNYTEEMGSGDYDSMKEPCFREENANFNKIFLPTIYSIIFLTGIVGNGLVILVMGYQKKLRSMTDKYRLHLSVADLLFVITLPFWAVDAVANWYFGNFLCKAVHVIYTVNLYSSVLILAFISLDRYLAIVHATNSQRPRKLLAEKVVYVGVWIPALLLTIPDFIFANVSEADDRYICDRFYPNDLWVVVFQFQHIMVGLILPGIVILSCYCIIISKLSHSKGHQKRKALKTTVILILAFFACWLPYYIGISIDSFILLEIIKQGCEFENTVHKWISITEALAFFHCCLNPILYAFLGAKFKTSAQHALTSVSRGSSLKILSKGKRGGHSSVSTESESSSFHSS
ASSAY_METHOD_TEXT: cell-based or functional assay
Bridges are numbered along the chain shown (N, C = ends). [ ]: non-standard residue; d: D form. 2Nal = N[C@@H](Cc1ccc2ccccc2c1)C(=O)O; Cit = NC(=O)NCCC[C@H](N)C(=O)O
PARAMETER: IC50 (nM) Ca2+ assay (method 2)
Numbers only, in nM.

cyclo(HR[Cit]CRG[dP]RR[2Nal]CYQK[dP]P) (disulfide 4-11; SMILES N=C(N)NCCC[C@@H]1NC(=O)[C@@H]2CSSC[C@H](NC(=O)[C@H](Cc3ccc4ccccc4c3)NC(=O)[C@H](CCCNC(=N)N)NC(=O)[C@H](CCCNC(=N)N)NC(=O)[C@H]3CCCN3C(=O)CNC1=O)C(=O)N[C@@H](Cc1ccc(O)cc1)C(=O)N[C@@H](CCC(N)=O)C(=O)N[C@@H](CCCCN)C(=O)N1CCC[C@@H]1C(=O)N1CCC[C@H]1C(=O)N[C@@H](Cc1c[nH]cn1)C(=O)N[C@@H](CCCNC(=N)N)C(=O)N[C@@H](CCCNC(N)=O)C(=O)N2) [Example 64]    3.3
cyclo(YR[Cit]CRG[dP]RR[2Nal]CYQQ[dP]P) (disulfide 4-11; SMILES N=C(N)NCCC[C@@H]1NC(=O)[C@@H]2CSSC[C@H](NC(=O)[C@H](Cc3ccc4ccccc4c3)NC(=O)[C@H](CCCNC(=N)N)NC(=O)[C@H](CCCNC(=N)N)NC(=O)[C@H]3CCCN3C(=O)CNC1=O)C(=O)N[C@@H](Cc1ccc(O)cc1)C(=O)N[C@@H](CCC(N)=O)C(=O)N[C@@H](CCC(N)=O)C(=O)N1CCC[C@@H]1C(=O)N1CCC[C@H]1C(=O)N[C@@H](Cc1ccc(O)cc1)C(=O)N[C@@H](CCCNC(=N)N)C(=O)N[C@@H](CCCNC(N)=O)C(=O)N2) [Example 60]    0.18
cyclo(YR[Cit]CRG[dP]RR[2Nal]CYQD[dP]P) (disulfide 4-11; SMILES N=C(N)NCCC[C@@H]1NC(=O)[C@@H]2CSSC[C@H](NC(=O)[C@H](Cc3ccc4ccccc4c3)NC(=O)[C@H](CCCNC(=N)N)NC(=O)[C@H](CCCNC(=N)N)NC(=O)[C@H]3CCCN3C(=O)CNC1=O)C(=O)N[C@@H](Cc1ccc(O)cc1)C(=O)N[C@@H](CCC(N)=O)C(=O)N[C@@H](CC(=O)O)C(=O)N1CCC[C@@H]1C(=O)N1CCC[C@H]1C(=O)N[C@@H](Cc1ccc(O)cc1)C(=O)N[C@@H](CCCNC(=N)N)C(=O)N[C@@H](CCCNC(N)=O)C(=O)N2) [Example 85]    2.7

Read the next record carefully.
Return reported IC50 (nM) Ca2+ assay (method 2); argument: cyclo(YRKCRG[dP]RR[2Nal]CYQK[dP]P) (disulfide 4-11; SMILES N=C(N)NCCC[C@@H]1NC(=O)[C@@H]2CSSC[C@H](NC(=O)[C@H](Cc3ccc4ccccc4c3)NC(=O)[C@H](CCCNC(=N)N)NC(=O)[C@H](CCCNC(=N)N)NC(=O)[C@H]3CCCN3C(=O)CNC1=O)C(=O)N[C@@H](Cc1ccc(O)cc1)C(=O)N[C@@H](CCC(N)=O)C(=O)N[C@@H](CCCCN)C(=O)N1CCC[C@@H]1C(=O)N1CCC[C@H]1C(=O)N[C@@H](Cc1ccc(O)cc1)C(=O)N[C@@H](CCCNC(=N)N)C(=O)N[C@@H](CCCCN)C(=O)N2) [Example 94]
2.5
